The following compounds are shown together with reported pIC50 values.
Biological target: Endothelin-1 receptor (Homo sapiens, UniProt P25101)
Sequence (P25101 whole entry): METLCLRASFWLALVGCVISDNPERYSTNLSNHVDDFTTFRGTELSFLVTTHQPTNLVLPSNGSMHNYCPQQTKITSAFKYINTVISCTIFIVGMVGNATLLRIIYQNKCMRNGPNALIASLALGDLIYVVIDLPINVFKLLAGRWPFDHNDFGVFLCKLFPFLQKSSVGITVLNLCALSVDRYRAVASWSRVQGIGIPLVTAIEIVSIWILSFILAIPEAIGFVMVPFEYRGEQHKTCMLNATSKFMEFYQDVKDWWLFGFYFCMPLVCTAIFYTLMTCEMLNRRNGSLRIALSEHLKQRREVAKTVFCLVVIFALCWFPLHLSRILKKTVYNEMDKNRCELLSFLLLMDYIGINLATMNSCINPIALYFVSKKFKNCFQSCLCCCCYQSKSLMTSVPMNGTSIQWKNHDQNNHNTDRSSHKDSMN
pIC50: −log10 of the molar value.

>  <test-smiles>
CCCc1cc2c(cc1OCc1ccsc1S(=O)(=O)Nc1onc(C)c1Br)OCO2

>  <pIC50>
6.87

$$$$
>  <test-smiles>
Cc1noc(NS(=O)(=O)c2sccc2COc2ccc3c(c2)OCO3)c1Br

>  <pIC50>
6.29

$$$$
>  <test-smiles>
Cc1cc(C)c(OCc2ccsc2S(=O)(=O)Nc2onc(C)c2Br)c(C)c1

>  <pIC50>
7.27

$$$$

----------
The following compounds are shown together with reported log10 of IC50 values.
Target: UniProtKB P24530
Sequence (P24530 whole entry): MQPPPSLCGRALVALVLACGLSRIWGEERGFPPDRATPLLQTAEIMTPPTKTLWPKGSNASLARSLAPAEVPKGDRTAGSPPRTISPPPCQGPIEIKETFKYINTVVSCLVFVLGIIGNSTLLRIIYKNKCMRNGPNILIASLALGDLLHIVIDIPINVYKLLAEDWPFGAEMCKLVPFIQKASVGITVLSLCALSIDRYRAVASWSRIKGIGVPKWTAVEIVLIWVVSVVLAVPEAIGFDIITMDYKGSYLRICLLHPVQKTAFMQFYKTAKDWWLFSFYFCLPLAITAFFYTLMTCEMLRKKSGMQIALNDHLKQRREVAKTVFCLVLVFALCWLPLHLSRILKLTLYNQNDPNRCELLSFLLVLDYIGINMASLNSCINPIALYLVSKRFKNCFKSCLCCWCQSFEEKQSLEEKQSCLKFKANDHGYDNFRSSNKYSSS
quantity-name: log10 of IC50 (log10 of the value in µM)

>  <test-smiles>
Cc1ccc(OCc2sccc2S(=O)(=O)Nc2onc(C)c2Br)cc1

>  <log10 of IC50>
1.19

$$$$
>  <test-smiles>
Cc1cc(C)c(OCc2sccc2S(=O)(=O)Nc2onc(C)c2Br)c(C)c1

>  <log10 of IC50>
0.49

$$$$
>  <test-smiles>
Cc1noc(NS(=O)(=O)c2ccsc2COc2ccc3c(c2)OCO3)c1Br

>  <log10 of IC50>
0.77

$$$$
>  <test-smiles>
Cc1noc(NS(=O)(=O)c2sccc2COc2ccc3c(c2)OCO3)c1Br

>  <log10 of IC50>
0.98

$$$$
>  <test-smiles>
CCCc1cc2c(cc1OCc1sccc1S(=O)(=O)Nc1onc(C)c1Br)OCO2

>  <log10 of IC50>
-0.47

$$$$
>  <test-smiles>
Cc1cc(C)c(OCc2ccsc2S(=O)(=O)Nc2onc(C)c2Br)c(C)c1

>  <log10 of IC50>
0.63

$$$$

Each recorded value in this set is attributed to ChEMBL document CHEMBL1130366.
